Attribution: ChEMBL document CHEMBL4028833

# System: A549
# Test Summary: Antiproliferative activity against human A549 cells after 72 hrs by MTT assay
# Format: functional, cell-based
# Settings: A549, 72 h
pIC50: −log10 of the molar value.
Outcome Measure: pIC50

I. O=C1C(Cl)=CCCN1C(=O)c1cccnc1
II. O=C1C(Cl)=CCCN1C(=O)C1CC1c1ccccc1 (stereo not drawn)
III. O=C(/C=C/c1cccnc1)N1CCC=C(Cl)C1=O
IV. O=C1C(Cl)=CCCN1C(=O)c1ccco1
Ascending sort, pIC50. Field: ranking. Enter the labels in the order requested. II, IV, I, III

====

# Test system: SK-HEP1
# Test Summary: Antiproliferative activity against human SKHEP1 cells after 72 hrs by MTT assay
# Format: functional, cell-based
# Settings: SK-HEP1, 72 h
pIC50: −log10 of the molar value.
Outcome Measure: pIC50

Examples from the recorded data:
Smiles Data | pIC50
O=C(/C=C/c1ccco1)N1CCC=C(Cl)C1=O | 5.90
O=C(/C=C/C(=O)N1CCC=C(Cl)C1=O)N1CCC=C(Cl)C1=O | 5.40
O=C1C(Br)=CCCN1C(=O)c1cnc2ccccc2c1 | 4.12
O=C1C(Cl)=CCCN1C(=O)c1cccnc1 | 5.32

I. O=C1C(Cl)=CCCN1C(=O)c1ccco1
II. O=C(/C=C/c1ccoc1)N1CCC=C(Cl)C1=O
Of I and II , whose reported pIC50 is numerically smaller? Give the label of your selection. I
(I: 4.87, II: 5.56)
